Hi there, I'd appreciate the recorded koff for every entry that follows.
Target: T1, recombinant monomeric human TIGIT-His (human, UniProt Q495A1 22-141)
T1 construct: also called hTIGIT; not shown: His tag
T1 sequence: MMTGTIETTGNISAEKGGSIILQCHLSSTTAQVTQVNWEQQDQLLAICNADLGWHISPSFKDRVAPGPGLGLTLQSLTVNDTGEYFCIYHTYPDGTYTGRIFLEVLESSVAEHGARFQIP
Assay: BLI (Octet QKe), antibody on AHC sensor, several concentrations of human TIGIT-His, 1:1 global fit, average
Express it in s⁻¹; write the number only.

Exercise: Any idea what koff was measured for MAB16-IgG4 (antibody, V domains shown) VH: QVQLVQSGAEVKKPGASVKVSCKASGYTFREYYMHWVRQAPGQGLEWMGIINPSIGLTSYARKFQGRVTMTRDTSTSTVYMELSSLRSEDTAVYYCARGGRTTWIGALDIWGQGTMVTVSS VL: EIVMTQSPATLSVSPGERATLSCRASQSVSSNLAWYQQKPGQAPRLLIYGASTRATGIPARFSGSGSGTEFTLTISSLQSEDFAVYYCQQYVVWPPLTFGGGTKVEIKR ?
Key: 0.00035

Exercise: Which koff value belongs to MAB5-IgG4 (antibody, V domains shown) VH: QLQLQESGPGLVKPSETLSLTCTVSGGSISSTSHYWGWIRQPPGKGLEWIGSIYYSGSTFYNPSLKGRVTISVDTSKNQFSLKLSSVTAADTAVYYCARDANYYGSAWAFDPWGQGTLVTVSS VL: EIVLTQSPATLSLSPGERATLSCRASQSVSSYLAWYQQKPGQAPRLLIYDASNRATGIPARFSGSGSGTDFTLTISSLEPEDFAVYYCQQHFNLPTFGGGTKVEIKR ?
Key: 0.00014

Exercise: For MAB4-IgG4 (antibody, V domains shown) VH: QLQLQESGPGLVKPSETLSLTCTVSGGSISSTSHYWGWIRQPPGKGLEWIGSIYYSGSTFYNPSLKSRVTISVDTSKNQFSLKLSSVTAADTAVYYCARDANYYGGAWAFDPWGQGTLVTVSS VL: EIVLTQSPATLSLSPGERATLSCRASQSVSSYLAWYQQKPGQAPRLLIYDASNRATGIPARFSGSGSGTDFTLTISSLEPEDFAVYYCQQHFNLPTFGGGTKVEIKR , what is its reported koff?
Key: 6.3e-05
